Listing of recorded Functional assay Cross-linked by F(ab′)2 fragment IL-8 by entry.
Molecular target: T1, CD134 expressed on the cell surface of HT1080_OX40 cells (human, UniProt P43489 29-277); also: test concentration or dose not given here
T1 sequence (looked up): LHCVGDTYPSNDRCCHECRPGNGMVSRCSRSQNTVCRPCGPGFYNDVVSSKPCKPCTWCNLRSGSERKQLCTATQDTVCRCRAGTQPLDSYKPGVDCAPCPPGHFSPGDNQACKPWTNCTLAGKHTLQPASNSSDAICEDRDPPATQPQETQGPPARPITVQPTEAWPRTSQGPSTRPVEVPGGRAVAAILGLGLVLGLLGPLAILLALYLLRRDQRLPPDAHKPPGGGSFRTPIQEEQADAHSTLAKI
Assay: cell-based or functional assay
parameter: Functional assay Cross-linked by F(ab′)2 fragment IL-8 (abs. corr.)

INSERT INTO results (binder, result_units, meas_value) VALUES
  ('P018.S.12.A.D06 (antibody, V domains shown, V regions on human Ig constant parts; also called AB134_71) VH: QSVEESGGRLVTPGTPLTLTCTVSGFSLSSYDMSWVRQAPGKGLEWIGIIYVSGTTDYASWAKGRFTISKTSTTVDLKMTSLTTEDTATYFCARDIYVDEIGCFDLWGQGTLVTVSS VL: DILMTQTPASVEVAVGGTVTIKCQASQNIRTYLAWYQQKPGQPPKLLIYRASTLESGVPSRFKGSGSGIEFSLTISDLESADAATYYCQNYDGGSSTGFGGGTEVVVK', 'abs. corr.', 2.17),
  ('P018.S.12.A.D02 (antibody, V domains shown, V regions on human Ig constant parts; also called AB134_67) VH: QSVEESGGRLVTPGTPLTLTCTVSGFSLRHYAMSWVRQAPGKGLEWIGVITTTANTYYASWAKGRFTVSKASSTTVDLKIMSPTIEDTATYFCARAMGLYDSYVDVDDTHDAFDPWGPGTLVTVSS VL: AQVLTQTASPVSAAVGGTVTINCQSSQSVYNSHVLSWYQQKPGQPPKLLIYDASNLASGVPSRFSASGSGTQFTLTISGVQSDDAATYYCLGGYDDDADNIFAFGGGTEVVVA', 'abs. corr.', 1.77),
  ('P018.S.12.A.C04 (antibody, V domains shown, V regions on human Ig constant parts; also called AB134_64) VH: QSLEESGGRLVTPGGSLTLTCTVSGIDLSRWTMSWVRQAPGKGLEWIGLIYASDDTVYASWAKGRFTISKTSTTVDLKITSPTTEDTATYFCVRVYGSTSGYYDLWGQGTLVTVSS VL: DVVMTQTPASVSEPVGGTVTIKCQASQSISNWLAWYQQKPGQPPKLLIYYASTLASGVPSRFKGSGSGTQFTLTISDLESADAATYYCQNFGDGNSIGHAFGGGTEVVVK', 'abs. corr.', 1.83);
